Target: Adenosine receptor A1 (Homo sapiens)
Sequence (P30542 whole entry): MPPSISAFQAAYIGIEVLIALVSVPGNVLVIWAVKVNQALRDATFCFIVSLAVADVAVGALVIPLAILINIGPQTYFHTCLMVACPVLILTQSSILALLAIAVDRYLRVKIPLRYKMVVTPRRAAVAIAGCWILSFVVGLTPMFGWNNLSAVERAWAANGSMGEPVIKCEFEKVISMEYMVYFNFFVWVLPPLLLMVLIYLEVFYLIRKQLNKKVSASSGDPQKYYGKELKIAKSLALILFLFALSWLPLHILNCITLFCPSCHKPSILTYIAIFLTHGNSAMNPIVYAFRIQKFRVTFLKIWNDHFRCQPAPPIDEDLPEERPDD
Assay: Displacement of […] from human adenosine A1 receptor expressed in CHO cells by scintillation counting in presence of 10 uM allosteric modulator PD-81723
Type: cell-based
Conditions: read-out: Ki
pKi by entry:
Schema: pKi number; meaning minus log10 of the concentration expressed in molar units.

Known pKi results, listed for orientation:
In [3]: df
Out[3]:
                                smiles_text  reading
0  Nc1sc2c(c1C(=O)c1ccc(Cl)c(Cl)c1)CCN(CCCCCOc1ccc(Nc3ncnc4c3ncn4[C@@H]3O[C@H](CO)[C@@H](O)[C@H]3O)cc1)C2     6.94
1  Nc1sc2c(c1C(=O)c1ccc(Cl)c(Cl)c1)CCN(CCCCCCCCCOc1ccc(Nc3ncnc4c3ncn4[C@@H]3O[C@H](CO)[C@@H](O)[C@H]3O)cc1)C2     6.19
2  Nc1sc2c(c1C(=O)c1ccc(Cl)c(Cl)c1)CCN(CCOc1ccc(Nc3ncnc4c3ncn4[C@@H]3O[C@H](CO)[C@@H](O)[C@H]3O)cc1)C2     6.33

Request: API: value(readout=pKi, system=Adenosine receptor A1 (Homo sapiens)) for record Nc1sc2c(c1C(=O)c1ccc(Cl)c(Cl)c1)CCN(CCCCCCCOc1ccc(Nc3ncnc4c3ncn4[C@@H]3O[C@H](CO)[C@@H](O)[C@H]3O)cc1)C2
Response: 6.46

Request: pKi of Nc1sc2c(c1C(=O)c1ccc(Cl)c(Cl)c1)CCN(CCCCCCOc1ccc(Nc3ncnc4c3ncn4[C@@H]3O[C@H](CO)[C@@H](O)[C@H]3O)cc1)C2 on Adenosine receptor A1 (Homo sapiens)?
Response: 6.54

Request: Could you share what pKi was measured for Nc1sc2c(c1C(=O)c1ccc(Cl)c(Cl)c1)CCN(CCCCCCCCCCOc1ccc(Nc3ncnc4c3ncn4[C@@H]3O[C@H](CO)[C@@H](O)[C@H]3O)cc1)C2 , tested on Adenosine receptor A1 (Homo sapiens)?
Response: 5.87

Request: # value lookup — system Adenosine receptor A1 (Homo sapiens), readout pKi, item Nc1sc2c(c1C(=O)c1ccc(Cl)c(Cl)c1)CCN(CCCCCCCCOc1ccc(Nc3ncnc4c3ncn4[C@@H]3O[C@H](CO)[C@@H](O)[C@H]3O)cc1)C2
Response: 6.23

Request: Record lookup: for Adenosine receptor A1 (Homo sapiens), what pKi belongs to Nc1sc2c(c1C(=O)c1ccc(Cl)c(Cl)c1)CCN(CCCOc1ccc(Nc3ncnc4c3ncn4[C@@H]3O[C@H](CO)[C@@H](O)[C@H]3O)cc1)C2 ?
Response: 6.57

Request: Short answer please: pKi, Adenosine receptor A1 (Homo sapiens), entry Nc1sc2c(c1C(=O)c1ccc(Cl)c(Cl)c1)CCN(CCCCOc1ccc(Nc3ncnc4c3ncn4[C@@H]3O[C@H](CO)[C@@H](O)[C@H]3O)cc1)C2
Response: 6.50

Request: Please tell me: pKi of COc1ccc(Nc2ncnc3c2ncn3[C@@H]2O[C@H](CO)[C@@H](O)[C@H]2O)cc1 , system Adenosine receptor A1 (Homo sapiens)?
Response: 6.71

---

Biological target: Adenosine receptor A1 (Homo sapiens) (UniProt P30542)
Sequence (whole entry): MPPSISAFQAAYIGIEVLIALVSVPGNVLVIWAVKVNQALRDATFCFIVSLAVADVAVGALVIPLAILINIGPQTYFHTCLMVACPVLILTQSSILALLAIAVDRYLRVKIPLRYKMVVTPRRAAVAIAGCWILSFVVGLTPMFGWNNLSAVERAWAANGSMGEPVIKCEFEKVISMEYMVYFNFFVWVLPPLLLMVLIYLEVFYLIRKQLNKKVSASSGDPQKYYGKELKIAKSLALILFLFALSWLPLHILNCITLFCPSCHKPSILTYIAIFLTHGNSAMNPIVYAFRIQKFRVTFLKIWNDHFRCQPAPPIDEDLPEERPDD
Experiment: Displacement of [3H]CCPA from human adenosine A1 receptor expressed in CHO cells by scintillation counting relative to control
Format: cell-based
readout_name: Emax (%)
Hi! Could you send only the number? It should be in %, unit omitted.

Check out these entries, answers already filled in.
>>> df
                                smiles_text  reading
0     Cc1sc(N)c(C(=O)c2cccc(C(F)(F)F)c2)c1C      140
1  Nc1sc2c(c1C(=O)c1ccc(Cl)c(Cl)c1)CCN(CCCOc1ccc([N+](=O)[O-])cc1)C2      204

Request: Would you kindly share the measured Emax for Nc1sc2c(c1C(=O)c1ccc(Cl)c(Cl)c1)CCN(CCCCCOc1ccc([N+](=O)[O-])cc1)C2 ?
Response: 185

---

Target: Adenosine receptor A1 (Homo sapiens)
Sequence (P30542 whole entry): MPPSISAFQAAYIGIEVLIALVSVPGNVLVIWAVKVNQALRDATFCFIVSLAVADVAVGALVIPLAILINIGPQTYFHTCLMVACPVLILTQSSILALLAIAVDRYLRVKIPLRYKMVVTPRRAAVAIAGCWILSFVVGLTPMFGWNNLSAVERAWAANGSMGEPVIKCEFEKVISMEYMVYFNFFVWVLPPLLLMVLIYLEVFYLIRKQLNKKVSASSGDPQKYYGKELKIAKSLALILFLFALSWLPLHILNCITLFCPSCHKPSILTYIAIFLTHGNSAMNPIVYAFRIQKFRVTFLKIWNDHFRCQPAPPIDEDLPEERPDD
Test: Displacement of […] from human adenosine A1 receptor expressed in CHO cells by scintillation counting
Assay type: cell-based
Conditions: read-out: pKi (converted)
readout_name: Ki (nM)
Numeric answer only, unit nM assumed.

These recorded examples may help you get a feel for the data.
                                smiles_text  reading
0  Nc1sc2c(c1C(=O)c1ccc(Cl)c(Cl)c1)CCN(CCCOc1ccc(Nc3ncnc4c3ncn4[C@@H]3O[C@H](CO)[C@@H](O)[C@H]3O)cc1)C2      417
1  Nc1sc2c(c1C(=O)c1ccc(Cl)c(Cl)c1)CCN(CCOc1ccc(Nc3ncnc4c3ncn4[C@@H]3O[C@H](CO)[C@@H](O)[C@H]3O)cc1)C2      741
2  Nc1sc2c(c1C(=O)c1ccc(Cl)c(Cl)c1)CCN(CCCCCOc1ccc(Nc3ncnc4c3ncn4[C@@H]3O[C@H](CO)[C@@H](O)[C@H]3O)cc1)C2      214
3  Nc1sc2c(c1C(=O)c1ccc(Cl)c(Cl)c1)CCN(CCCCCCCCCCOc1ccc(Nc3ncnc4c3ncn4[C@@H]3O[C@H](CO)[C@@H](O)[C@H]3O)cc1)C2     1260
4  Nc1sc2c(c1C(=O)c1ccc(Cl)c(Cl)c1)CCN(CCCCCCOc1ccc(Nc3ncnc4c3ncn4[C@@H]3O[C@H](CO)[C@@H](O)[C@H]3O)cc1)C2      479

Request: Any idea what Ki was measured for Nc1sc2c(c1C(=O)c1ccc(Cl)c(Cl)c1)CCN(CCCCCCCCCOc1ccc(Nc3ncnc4c3ncn4[C@@H]3O[C@H](CO)[C@@H](O)[C@H]3O)cc1)C2 ?
Response: 661

Request: Tell me the measured Ki of Nc1sc2c(c1C(=O)c1ccc(Cl)c(Cl)c1)CCN(CCCCCCCCOc1ccc(Nc3ncnc4c3ncn4[C@@H]3O[C@H](CO)[C@@H](O)[C@H]3O)cc1)C2 , please.
Response: 776

Request: Need Ki, item COc1ccc(Nc2ncnc3c2ncn3[C@@H]2O[C@H](CO)[C@@H](O)[C@H]2O)cc1
Response: 832

---

Reported Emax values are given for each entry in this list.
Biological target: Adenosine receptor A1 (Homo sapiens) (UniProt P30542)
Sequence (whole entry): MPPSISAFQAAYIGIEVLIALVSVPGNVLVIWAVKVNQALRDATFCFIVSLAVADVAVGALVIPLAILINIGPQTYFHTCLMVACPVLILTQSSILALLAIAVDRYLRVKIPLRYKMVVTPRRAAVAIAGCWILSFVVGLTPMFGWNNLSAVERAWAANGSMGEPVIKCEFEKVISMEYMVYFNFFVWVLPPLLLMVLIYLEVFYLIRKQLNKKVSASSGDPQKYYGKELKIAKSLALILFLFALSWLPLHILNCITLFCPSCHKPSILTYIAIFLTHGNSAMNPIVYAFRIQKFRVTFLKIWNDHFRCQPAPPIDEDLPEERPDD
Assay: Displacement of [3H]CCPA from human adenosine A1 receptor expressed in CHO cells by scintillation counting relative to control
Assay type: cell-based
Numbers only here, please. The scale is %.

Some solved cases for reference:
                                smiles_text  unit_of_measurement  reading
0  Nc1sc2c(c1C(=O)c1ccc(Cl)c(Cl)c1)CCN(CCCCCOc1ccc(Nc3ncnc4c3ncn4[C@@H]3O[C@H](CO)[C@@H](O)[C@H]3O)cc1)C2                    %       97
1  Nc1sc2c(c1C(=O)c1ccc(Cl)c(Cl)c1)CCN(CCOc1ccc([N+](=O)[O-])cc1)C2                    %      250
2  Nc1sc2c(c1C(=O)c1ccc(Cl)c(Cl)c1)CCN(CCCCCCCCCOc1ccc(Nc3ncnc4c3ncn4[C@@H]3O[C@H](CO)[C@@H](O)[C@H]3O)cc1)C2                    %       79

Request: Given the compound COc1ccc(Nc2ncnc3c2ncn3[C@@H]2O[C@H](CO)[C@@H](O)[C@H]2O)cc1 , what is its reported Emax?
Response: 100
